Hello, the source for this data is the supplement of paper PMC7411054, in case you need it.

Test system: WPMY1-TP53BP1-CLTA
Test: phenotypically active (imaging signature differs from DMSO and reproducible) at any of 0.3-9 uM (binary (1 = active, 0 = inactive)); higher = active
Conditions: treatment time: 24 h
Counter-ions that a name gives are not always drawn.
Let's look at some compounds and their measured phenotypically active.
METRIC_NAME: phenotypically active

* C[C@@H]1COCCN1c1cc(C2(S(C)(=O)=O)CC2)nc(-c2cccc3[nH]ccc23)n1 | 1 (active)
* Cc1[nH]c2ccccc2c1CCNC(=O)c1ccccc1F | 0 (inactive)
* Nc1ccn([C@@H]2O[C@H](CO)[C@@H](O)[C@H]2O)c(=O)n1 | 0 (inactive)
* Cc1cccc(C)c1OCC(=O)N[C@@H](Cc1ccccc1)[C@@H](O)C[C@H](Cc1ccccc1)NC(=O)[C@H](C(C)C)N1CCCNC1=O | 0 (inactive)
* CC(C)[C@H]1CC[C@H](C(=O)N[C@H](Cc2ccccc2)C(=O)O)CC1 [nateglinide] | 0 (inactive)
* COc1ccc(C[C@H](N)C(=O)N[C@H]2[C@@H](O)[C@H](n3cnc4c(N(C)C)ncnc43)O[C@@H]2CO)cc1 [Puromycin dihydrochloride] | 1 (active)
